Where these numbers come from: paper PMC2954295

TARGET_UNDER_TEST: human OGA (O-GlcNAcase) (Homo sapiens)
Sequence (O60502 whole entry): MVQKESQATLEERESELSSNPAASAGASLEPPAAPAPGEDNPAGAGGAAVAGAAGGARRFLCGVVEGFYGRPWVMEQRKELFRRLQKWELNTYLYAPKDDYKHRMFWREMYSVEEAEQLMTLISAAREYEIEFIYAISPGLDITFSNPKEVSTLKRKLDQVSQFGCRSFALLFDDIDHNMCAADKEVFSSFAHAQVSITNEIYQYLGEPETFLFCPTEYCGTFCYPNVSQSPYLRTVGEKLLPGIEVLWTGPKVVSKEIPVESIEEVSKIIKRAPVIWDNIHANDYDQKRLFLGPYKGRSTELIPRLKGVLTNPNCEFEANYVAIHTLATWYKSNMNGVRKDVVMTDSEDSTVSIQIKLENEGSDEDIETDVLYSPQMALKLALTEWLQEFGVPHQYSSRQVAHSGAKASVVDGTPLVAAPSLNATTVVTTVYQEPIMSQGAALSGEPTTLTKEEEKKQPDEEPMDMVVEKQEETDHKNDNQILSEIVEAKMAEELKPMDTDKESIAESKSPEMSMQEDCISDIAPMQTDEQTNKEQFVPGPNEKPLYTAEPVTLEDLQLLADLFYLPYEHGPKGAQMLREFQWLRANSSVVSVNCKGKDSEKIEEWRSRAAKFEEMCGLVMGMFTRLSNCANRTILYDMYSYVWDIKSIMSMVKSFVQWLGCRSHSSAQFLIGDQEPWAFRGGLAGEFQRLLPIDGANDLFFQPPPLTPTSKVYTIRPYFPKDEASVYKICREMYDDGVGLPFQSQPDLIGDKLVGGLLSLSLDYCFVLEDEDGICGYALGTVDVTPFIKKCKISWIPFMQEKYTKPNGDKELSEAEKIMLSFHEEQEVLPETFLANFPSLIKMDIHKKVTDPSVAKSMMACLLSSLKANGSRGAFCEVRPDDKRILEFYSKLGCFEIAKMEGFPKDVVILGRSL
PROTOCOL_DETAILS: continuous UV/Vis assay with pNP-GlcNAc substrate, recombinant enzyme
RESULT_TYPE: Ki (nM)

CC(=O)N[C@H]1CN2CC[C@H](O)[C@@H]2[C@@H](O)[C@@H]1O; 300
